Entry source: ChEMBL document CHEMBL2157861

target-desc: Phosphatidylinositol 4,5-bisphosphate 3-kinase catalytic subunit gamma isoform (Homo sapiens, UniProt P48736)
Sequence (P48736 whole entry, canonical isoform): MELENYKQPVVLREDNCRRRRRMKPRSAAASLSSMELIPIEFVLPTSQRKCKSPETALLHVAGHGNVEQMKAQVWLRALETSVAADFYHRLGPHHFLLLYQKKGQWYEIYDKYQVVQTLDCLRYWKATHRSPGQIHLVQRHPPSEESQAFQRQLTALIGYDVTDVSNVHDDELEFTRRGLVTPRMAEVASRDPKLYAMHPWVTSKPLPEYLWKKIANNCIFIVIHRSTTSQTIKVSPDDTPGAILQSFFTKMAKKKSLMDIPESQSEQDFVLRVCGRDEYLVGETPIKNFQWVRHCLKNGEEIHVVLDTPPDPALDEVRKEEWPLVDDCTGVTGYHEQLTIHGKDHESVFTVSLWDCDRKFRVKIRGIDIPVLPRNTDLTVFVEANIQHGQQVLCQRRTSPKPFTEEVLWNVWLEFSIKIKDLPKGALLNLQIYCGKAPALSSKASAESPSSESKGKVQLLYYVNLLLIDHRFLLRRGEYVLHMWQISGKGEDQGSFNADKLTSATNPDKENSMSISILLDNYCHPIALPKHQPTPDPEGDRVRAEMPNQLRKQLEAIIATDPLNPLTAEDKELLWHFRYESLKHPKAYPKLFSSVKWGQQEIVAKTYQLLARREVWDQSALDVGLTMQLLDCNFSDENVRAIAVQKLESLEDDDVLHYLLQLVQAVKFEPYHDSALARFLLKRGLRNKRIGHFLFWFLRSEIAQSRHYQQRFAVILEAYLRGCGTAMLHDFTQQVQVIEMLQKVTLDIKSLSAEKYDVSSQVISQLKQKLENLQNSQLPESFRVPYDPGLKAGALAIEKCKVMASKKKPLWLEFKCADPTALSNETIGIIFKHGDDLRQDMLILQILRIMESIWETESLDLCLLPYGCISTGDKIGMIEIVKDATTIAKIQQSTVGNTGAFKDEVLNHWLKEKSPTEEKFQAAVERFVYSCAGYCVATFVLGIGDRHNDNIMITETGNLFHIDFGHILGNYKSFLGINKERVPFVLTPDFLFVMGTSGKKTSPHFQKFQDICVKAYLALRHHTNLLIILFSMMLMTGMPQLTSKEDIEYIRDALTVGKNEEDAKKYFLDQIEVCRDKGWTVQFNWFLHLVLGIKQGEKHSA
assay-name: Inhibition of PI3K p110gamma
endpoint: pIC50
Give bare numbers, as −log10 of the molar value.

### Prompt Please give the documented pIC50 of "O=c1cc(N2CCOCC2)nc(NCc2cccc3ccccc23)[nH]1"
### Response 4.73

====

target-desc: Phosphatidylinositol 4,5-bisphosphate 3-kinase catalytic subunit alpha isoform (Homo sapiens, UniProt P42336)
Sequence (P42336 whole entry, canonical isoform): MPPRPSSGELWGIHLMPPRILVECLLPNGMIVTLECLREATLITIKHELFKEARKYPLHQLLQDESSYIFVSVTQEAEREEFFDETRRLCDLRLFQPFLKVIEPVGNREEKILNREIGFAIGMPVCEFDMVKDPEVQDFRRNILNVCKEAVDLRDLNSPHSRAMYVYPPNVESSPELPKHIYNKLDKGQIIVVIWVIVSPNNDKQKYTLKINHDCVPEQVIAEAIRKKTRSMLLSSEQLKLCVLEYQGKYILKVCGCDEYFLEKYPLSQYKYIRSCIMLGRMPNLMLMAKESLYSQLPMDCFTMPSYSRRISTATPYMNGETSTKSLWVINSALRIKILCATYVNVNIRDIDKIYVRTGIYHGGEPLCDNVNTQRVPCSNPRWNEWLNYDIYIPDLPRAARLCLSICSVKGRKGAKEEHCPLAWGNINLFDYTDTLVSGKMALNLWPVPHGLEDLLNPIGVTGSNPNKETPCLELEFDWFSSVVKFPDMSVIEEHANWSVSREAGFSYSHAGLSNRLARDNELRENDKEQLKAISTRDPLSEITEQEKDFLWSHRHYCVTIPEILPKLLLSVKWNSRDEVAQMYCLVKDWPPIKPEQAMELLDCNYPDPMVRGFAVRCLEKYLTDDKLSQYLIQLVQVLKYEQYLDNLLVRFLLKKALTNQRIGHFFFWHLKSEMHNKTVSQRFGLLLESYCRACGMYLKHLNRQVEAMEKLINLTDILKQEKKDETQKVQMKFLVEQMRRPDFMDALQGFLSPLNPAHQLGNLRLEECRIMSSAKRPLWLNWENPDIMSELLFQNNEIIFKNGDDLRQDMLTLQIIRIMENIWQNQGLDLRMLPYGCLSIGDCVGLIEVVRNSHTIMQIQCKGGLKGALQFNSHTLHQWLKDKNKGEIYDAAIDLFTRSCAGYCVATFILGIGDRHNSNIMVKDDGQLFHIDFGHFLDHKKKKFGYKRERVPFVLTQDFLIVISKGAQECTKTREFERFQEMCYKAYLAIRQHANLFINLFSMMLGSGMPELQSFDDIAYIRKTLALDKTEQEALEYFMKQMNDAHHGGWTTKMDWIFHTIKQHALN
assay-name: Inhibition of human recombinant His6-tagged PI3K p110alpha expressed in baculovirus using DiC8-PI(4,5)P2 as substrate after 20 mins by AlphaScreen assay
Provide the reported IC50 of each item.

Here's what some known entries look like.
O=c1cc(NCc2ccccc2)[nH]c(N2CCOCC2)c1 = 142 µM
OCc1cc(NCc2ccccc2)nc(N2CCOCC2)c1 = 119 µM
Cc1cc(C(C)Nc2ccccc2)c2nc(N3CCOCC3)cc(=O)n2c1 (stereo unspecified) = 5.7 µM
NCc1nc(NCc2ccccc2)cc(N2CCOCC2)n1 = > 83.3 µM
O=c1cc(N2CCOCC2)nc(NCc2cccc(Cl)c2Cl)[nH]1 = 3 µM
O=c1nc(N2CCOCC2)cc(NCc2ccccc2)[nH]1 = > 83.3 µM
O=c1cc(N2CCOCC2)nc(NCc2ccccc2)[nH]1 = 12.2 µM
O=c1nc(N2CCOCC2)cc(NCc2cccc(Cl)c2Cl)[nH]1 = 100 µM

Provide IC50 for all items below, preserving their order.
1. O=c1cc(N2CCOCC2)nc(NCc2cc(Cl)ccc2Cl)[nH]1
2. C[C@H](Nc1cc(N2CCOCC2)nc(=O)[nH]1)c1cccc2ccccc12
3. C[C@@H](Nc1cc(N2CCOCC2)nc(=O)[nH]1)c1cccc2ccccc12
4. O=c1cc(N2CCOCC2)nc(NCc2c(Cl)cccc2Cl)[nH]1
5. O=c1cc(N2CCOCC2)nc(NCc2cccc3ccccc23)[nH]1
6. O=c1nc(N2CCOCC2)cc(NCc2cccc3ccccc23)[nH]1

### Response
1: 4.52 µM; 2: 52.8 µM; 3: 146 µM; 4: 3.38 µM; 5: 4.3 µM; 6: > 83.3 µM

I would be grateful if you could provide IC50 for each of the following entries.
1. COC(=O)c1cc(NCc2ccccc2)nc(N2CCOCC2)c1
2. O=c1cc(N2CCOCC2)nc(NCc2cccc(Cl)c2)[nH]1
3. c1ccc(CNc2cc(N3CCOCC3)ncn2)cc1

### Response
240 µM
7.9 µM
> 83.3 µM

Consider the following items and state reported IC50 for each.
1. Nc1nc(NCc2ccccc2)cc(N2CCOCC2)n1
2. N#Cc1nc(NCc2ccccc2)cc(N2CCOCC2)n1
3. O=c1cc(N2CCOCC2)nc(NCc2ccccc2Cl)[nH]1
4. O=c1cc(NCc2ccccc2)nc(N2CCOCC2)[nH]1

### Response
1. > 83.3 µM
2. 41.4 µM
3. 4.88 µM
4. 283 µM

====

target-desc: Phosphatidylinositol 4,5-bisphosphate 3-kinase catalytic subunit delta isoform (Homo sapiens)
Sequence (O00329 whole entry): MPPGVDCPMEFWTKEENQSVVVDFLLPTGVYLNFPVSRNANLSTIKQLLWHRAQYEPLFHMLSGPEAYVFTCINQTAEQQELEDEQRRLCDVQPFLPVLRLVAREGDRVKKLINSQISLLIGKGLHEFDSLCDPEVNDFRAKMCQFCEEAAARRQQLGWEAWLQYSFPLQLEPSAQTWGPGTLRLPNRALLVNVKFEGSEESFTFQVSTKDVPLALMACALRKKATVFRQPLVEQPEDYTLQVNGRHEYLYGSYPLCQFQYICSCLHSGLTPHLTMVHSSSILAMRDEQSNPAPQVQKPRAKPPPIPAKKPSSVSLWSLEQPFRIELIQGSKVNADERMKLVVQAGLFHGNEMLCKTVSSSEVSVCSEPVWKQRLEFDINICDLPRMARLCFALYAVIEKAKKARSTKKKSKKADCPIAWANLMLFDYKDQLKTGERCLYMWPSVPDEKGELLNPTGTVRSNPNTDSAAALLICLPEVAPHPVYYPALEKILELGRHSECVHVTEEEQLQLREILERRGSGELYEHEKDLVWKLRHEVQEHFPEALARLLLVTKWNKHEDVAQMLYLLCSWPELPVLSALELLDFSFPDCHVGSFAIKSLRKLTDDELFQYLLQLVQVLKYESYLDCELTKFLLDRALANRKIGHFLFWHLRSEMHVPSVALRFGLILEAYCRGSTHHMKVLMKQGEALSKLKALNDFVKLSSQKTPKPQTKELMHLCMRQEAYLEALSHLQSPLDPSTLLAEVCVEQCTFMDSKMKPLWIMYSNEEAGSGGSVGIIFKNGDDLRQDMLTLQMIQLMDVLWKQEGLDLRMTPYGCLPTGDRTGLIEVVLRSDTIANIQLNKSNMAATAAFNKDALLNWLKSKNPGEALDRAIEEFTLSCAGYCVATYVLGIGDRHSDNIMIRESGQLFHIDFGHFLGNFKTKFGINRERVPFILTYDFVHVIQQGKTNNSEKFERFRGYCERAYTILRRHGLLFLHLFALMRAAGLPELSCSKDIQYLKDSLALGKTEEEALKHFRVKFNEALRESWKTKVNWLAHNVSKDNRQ
assay-name: Inhibition of PI3K p110delta
endpoint: pIC50
Numbers only, as −log10 of the molar value.

### Prompt Write down pIC50 measured for item "O=c1cc(N2CCOCC2)nc(NCc2cccc3ccccc23)[nH]1"
### Response 6.85
